# Test system: PfSIP2 AP2 domain 1 (GST-tagged)
# method: gcPBM binding intensity (ln(normalized median fluorescence intensity)); higher = stronger DNA binding
In all, about 25,000 sequences were measured (“ln(normalized median fluorescence intensity)”: median about 7.1, highest 2% from about 10 on). Many of the other results were omitted from the sample, so the highest values are more common in it than they were.
Listed next: entries and their corresponding gcPBM binding intensity (ln).

| sequence | gcPBM binding intensity (ln) |
| --- | --- |
| TATATAAAAAATAGGTGGTCAACTTAAATATTTTAT [XGTACX_site4495] | 7.16 |
| TTTCTTTTTTTTTAATGTACTTTTTTTATAAAAGGT [XGTACX_site5688] | 7.27 |
| ATATCAAATAATTTAGTGCACTTTTTTTTTTCTTTT [GTGCAC_site9629] | 10.4 |
| TGTGTATATATGCTGGTGCAACTTTAAAAAATAATC | 10.1 |
| AAAGAATTATATAAGGTGCACGAATGTTTCTTTAAT | 10.9 |
| ATATAAAGTATGTTAGTGCACTTTTTTTTTTTTTTT [GTGCAC_site9419] | 11.2 |
| TATATTTTATATATGGTGCAACTTTTATTTAAATAA | 10.6 |
| ATAATTATTTAATATATATATATTATTTCGAATGTT [GTGCAC_negctrl_site688] | 7.03 |
| TCATAAATATAAAGTGTGCACTTGAATAATATGTAT | 9.52 |
| ATTTTCTTTTCCATAGTGCAATATAATTATCCATCA [GTGCAC_site9547] | 8.36 |
